Recorded measurements of z-score, one per entry
test: splicing luciferase reporter signal modulators, primary screen, spliceosome inhibition project, cell-based, HEK293, splice +/- reporter (AID 1101);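 also: HEK293 cells carrying a splicing-competent luciferase reporter gene; test concentration not given here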
measurementConditions: luminescence, 24 h, higher = more signal, called active from +8 up or from −8 down
# output: bare number, no unit

Indicate the recorded z-score value for this compound: COC(=O)[C@@H]1CC[C@H](C)[C@@H](c2ccc(Br)cc2)N1C[C@H](O)CN=[N+]=[N-]
-0.812

Indicate the recorded z-score value for this compound: CCOC(=O)CCN1C(=O)[C@H]2[C@H]3[C@H](O)[C@H](O)CC(=NO[C@@H]4O[C@H](CO)[C@@H](O)[C@H](O)[C@H]4O)[C@@H]3CC[C@H]2C1=O
-0.104

Indicate the recorded z-score value for this compound: CC(=O)OC[C@H]1O[C@H](CCON=C(C)C)C=C[C@@H]1OC(C)=O
0.384

***
Indicate the recorded z-score value for this compound: O=C1CCCC=C1C(O)COCc1ccccc1 (stereo not drawn)
-0.0937

---

test: S. cerevisiae growth modulation with rapamycin, primary screen, strain BY4716, OD600, 96 h (AID 1091); also: test concentration not given here
measurementConditions: higher = more signal, called active from +8 up or from −8 down
Recorded measurements of z-score, one per entry
# output: bare number, no unit

Look over these answered cases.
Indicate the recorded z-score value for this compound: C[C@@H]1CC[C@H]2C(=O)O[C@@H](CN=[N+]=[N-])CN2[C@H]1c1ccc(Br)cc1
32.7

Indicate the recorded z-score value for this compound: C#CCCCON=C1C[C@@H](O)[C@@H](O)[C@@H]2[C@@H]3C(=O)N(CC)C(=O)[C@@H]3CC[C@H]12
-0.247

Indicate the recorded z-score value for this compound: CC(=O)OC[C@H]1O[C@H](CC=NOCC[C@@H]2C=C[C@H](OC(C)=O)[C@@H](COC(C)=O)O2)C=C[C@@H]1OC(C)=O
-0.0043

Indicate the recorded z-score value for this compound: CC(C)(C)N1C(=O)[C@H]2[C@H]3[C@H](O)[C@H](O)CC(=NOC[C@@H](O)COCc4ccco4)[C@@H]3CC[C@H]2C1=O
0.498

Indicate the recorded z-score value for this compound: C[C@@H]1CC[C@H]2C(=O)OC(CN3C(=O)c4ccccc4C3=O)CN2[C@H]1c1ccc(Br)cc1 (some centres not stated)
-0.338

***
Indicate the recorded z-score value for this compound: CO[C@@H]1C=CCC(=O)N[C@@H](C)C(=O)OC[C@@H](NS(=O)(=O)c2ccc(C)cc2)[C@H](C)C=CCC(=O)OC[C@H]1C
-0.411

Indicate the recorded z-score value for this compound: COC(=O)[C@H](C)NC(=O)CCC1CC(OC(=O)NCc2cccc3ccccc23)CC2(CCCC(COC(=O)NCCOc3ccccc3)O2)O1 (some centres not stated)
-0.576

Indicate the recorded z-score value for this compound: COC(OC)[C@@H](C)[C@H](OC)[C@@H](C)[C@H](OC)c1ccccc1
-0.213

Indicate the recorded z-score value for this compound: Cc1cc(C)c(-c2cc([C@H](C)ON=C[C@@H](C)[C@H](OCc3ccccc3)C(C)C)on2)c(C)c1
0.817

Indicate the recorded z-score value for this compound: COC(=O)[C@@H]1CC[C@H](C)[C@@H](c2ccc(Br)cc2)N1C(=O)C(F)(F)F
2.16

Indicate the recorded z-score value for this compound: COC(=O)[C@H](C)NC(=O)CCC1CC(OC(=O)NCCc2ccc(F)cc2)CC2(CCCC(COC(=O)NCCOc3ccccc3)O2)O1 (some centres not stated)
1.12

Indicate the recorded z-score value for this compound: CC(=O)OC[C@H]1O[C@H](CCON=C(C)C)C=C[C@@H]1OC(C)=O
0.748
